System: Plasmodium falciparum
Experiment: Confirmatory screen in NF54 pLDH assay, in single point, at 2uM, 72h
Assay type: functional, Erythrocyte
Conditions: timepoint 72 hour
Hit rate of the full screen: of about 4,800 compounds, about 410 (8.5%) showed an effect of 50% or more. The sample holds strong results, similar compounds and a random draw of the others, so the mix is not that of the screen.
MEASUREMENT_NAME: % Inhibition (%)
Write the value in % as a bare number.

Example entries begin here.
> print(dat)
                                    compound        subject.of.test  readout.value
 1  Cn1c(C(=O)N2CC[C@H](N)C2)ccc1-c1cccc(Br)c1  Plasmodium falciparum             11
 2     O=c1[nH]nc(-c2ccc3c(c2)CCC3)c2ccccc12  Plasmodium falciparum             -1
 3  O=C(c1ccccc1Cl)N1CCC[C@H](n2cnc3ccccc3c2=O)C1  Plasmodium falciparum            -12
 4      Cc1cc(NCc2noc(-c3ccsc3)n2)ccc1C(N)=O  Plasmodium falciparum              5
 5        CCOc1c(Br)cc(Cl)cc1NCC(=O)NC(=O)NC  Plasmodium falciparum             14
 6  O=S1(=O)N=C(NC[C@@H](O)Cc2ccccc2)c2ccccc21  Plasmodium falciparum              7
 7  C[C@@H](C(=O)N1CCN(C/C=C/c2ccccc2)CC1)N1Cc2ccccc2C1=O  Plasmodium falciparum              0
 8      C#CCN(C(=O)NC1CCN(C(C)=O)CC1)C1CCCC1  Plasmodium falciparum            -12
 9                CN(Cc1ccc(F)cn1)c1ccn(C)n1  Plasmodium falciparum              8
10                 COc1ccc(CC(=O)NCCOCCO)cc1  Plasmodium falciparum              8

[in] Find the measured % Inhibition: item Cc1ccccc1N1C2=CCCCCN2C[C@]1(O)c1ccc(Br)cc1 , target or system Plasmodium falciparum.
[out] 14

[in] Find the measured % Inhibition: item CC1CN(CC(=O)NCCC#N)C(C)CO1 (configuration not stated) , target or system Plasmodium falciparum.
[out] 1
